# System: B. subtilis ATCC 11774
# EXPERIMENT NOTES: Tetrazolium (MTT) microplate assay of minimum inhibitory concentration
# Format: cell-based
# CONDITIONS: Bacillus subtilis, ATCC11774; 100 µg/mL
MEASURED METRIC: inhibition at 100 µg/mL (%)

INSERT INTO measurements (compound, target_system, value_measured) VALUES
  ('CCCOc1ccc(/C=N/NC(=O)c2ccncc2)cc1OC', 'B. subtilis ATCC 11774', 26),
  ('CCCOc1ccc(/C=N/NC(=O)c2ccncc2)cc1', 'B. subtilis ATCC 11774', 23),
  ('COc1cc(/C=N/NC(=O)c2ccncc2)ccc1OCC=C(C)C', 'B. subtilis ATCC 11774', 28),
  ('CO/N=C(\C(=O)N[C@@H]1C(=O)N2C(C(=O)O)=C(CSc3nc(=O)c(=O)[nH]n3C)CS[C@H]12)c1csc(N)n1 [Ceftriaxone, reference compound]', 'B. subtilis ATCC 11774', 79),
  ('CC(C)(C)OC(=O)COc1ccc(/C=N/NC(=O)c2ccncc2)cc1', 'B. subtilis ATCC 11774', 22),
  ('CC(C)=CCOc1ccc(/C=N/NC(=O)c2ccncc2)cc1', 'B. subtilis ATCC 11774', 29),
  ('COc1cc(/C=N/NC(=O)c2ccncc2)ccc1OCC(=O)OC(C)(C)C', 'B. subtilis ATCC 11774', 26);

# credit: paper PMC9571093
